Experiment: Primary qHTS for inhibitors of nuclear receptor binding SET domain protein 2 (NSD2) in an isogenic RCH-ACV NSD2 p.E1099K mutant (9B) (AID 1645876); also: nearly all actives have a fitted effect of over 70% in size
Settings: RCH-ACV (leukaemia line) NSD2 E1099K (9B) viability, CellTiter-Glo, 72 h; series mostly up to 44.9 µM
Records with an inconclusive call do not appear. Activity calls are given as the source filed them. Calls follow the shape of the dose curve; as a rule, active = well fitted inhibition curve with a large enough effect; inconclusive = small, poorly fitted or top-dose-only effect; inactive = flat fitted curve, though single readings scatter. *1 amine or outer side, *2 acyl side, *3 side chain or, on linkers, in order; H or OH if unused. Where a SMILES comes first, the peptide text is derived from it. Bridges are numbered along the chain shown (N, C = ends). [ ]: non-standard residue; d: D form. The star is where a group is joined. pTerphenylCO(4''-OnC5H11) = CCCCCOc1ccc(-c2ccc(-c3ccc(C(=O)*)cc3)cc2)cc1; Orn(4R-OH,5R-OH) = O=C([C@H](C[C@@H](O)[C@@H](O)N[*:3])N[*:1])[*:2]; hTyr(3S-OH,4S-OH) = N[C@H](C(=O)O)[C@H](O)[C@@H](O)c1ccc(O)cc1; Pro(3S-OH,4S-Me) = C[C@H]1CN[C@H](C(=O)O)[C@H]1O; Hyp = O=C(O)[C@@H]1C[C@@H](O)CN1
Entry note: the call must match one of active, inactive

Compound: CCC(C)CC(=O)OC1C(=O)C(CO)=CC(O)C1C(C)C (stereo unspecified)
Classification: active

Compound: O=C(NCc1nc2ccccc2c(=O)n1-c1ccc(F)cc1)Nc1ccc(Cl)c(C(F)(F)F)c1
Classification: active

Compound: C=CC(=O)N1CCC[C@@H](n2nc(-c3cccc(C(=O)Nc4ccc(C(C)C)c(C)c4)c3)c3c(N)ncnc32)C1
Classification: active

Compound: Cc1nc2c(C(F)(F)F)cccc2nc1-c1ccc(-c2cccc(S(C)(=O)=O)c2)cc1
Classification: inactive

Compound: CCCCCOc1ccc(-c2ccc(-c3ccc(C(=O)N[C@H]4C[C@@H](O)[C@@H](O)NC(=O)[C@@H]5[C@@H](O)[C@@H](C)CN5C(=O)[C@H]([C@@H](C)O)NC(=O)[C@H]([C@H](O)[C@@H](O)c5ccc(O)cc5)NC(=O)[C@@H]5C[C@@H](O)CN5C(=O)[C@H]([C@@H](C)O)NC4=O)cc3)cc2)cc1 ({pTerphenylCO(4''-OnC5H11)}-[Orn(4R-OH,5R-OH)]T[Hyp][hTyr(3S-OH,4S-OH)]T[Pro(3S-OH,4S-Me)]; lactam 1-C)
Classification: inactive

Compound: C[C@H](Nc1cc2c(-c3ccc4c(c3)OCO4)noc2cn1)c1ccccc1
Classification: inactive

# input Record request — test call for COc1ccc(C2Oc3c(OC)cc(CCCO)cc3C2COC2OC(CO)C(O)C(O)C2O)cc1OC (stereo unspecified)
# output inactive

# input Record request — test call for "N#CC(CCCN1CCC(O)(c2ccc(Cl)cc2)CC1)(c1ccccc1)c1ccccc1"
# output active

# input Record request — test call for CC(C)C[C@@H]1NC(=O)[C@@H](Cc2ccccc2)NC(=O)C(CCCCCC(=O)C2CO2)NC(=O)[C@@H]2CCCCN2C1=O (stereo partly specified)
# output active

# input Record request — test call for "CNC(=O)c1ccc2c(c1)CCO[C@H]2CCN1CCN(c2ccc(OC)cc2)CC1"
# output inactive

# input Record request — test call for "C=C(C)C1=C[C@@]2(C)C(=CC1=O)CC[C@@H](O)[C@@H]2C"
# output inactive

# input Record request — test call for "O=C(NO)c1ccc(CC(=O)N(CCO)c2ccccc2)cc1"
# output active

----------
Tested on: Es-2
Assay: Primary qHTS to identify gynecologic anti-cancer compounds using libraries of approved drugs and bioactive compounds (AID 1345084); also: nearly all actives have a fitted effect of over 55% in size
Conditions: Gynecologic cancer cell panel viability, ATPlite luminescence, 48 h; series mostly up to 57.5 µM
Records with an inconclusive call do not appear. Calls of active or inactive are those of the source. Calls follow the shape of the dose curve; as a rule, active = well fitted cell-killing curve with a large enough effect; inconclusive = small, poorly fitted or top-dose-only effect, or effect the other way; inactive = flat fitted curve, though single readings scatter.
Entry note: the call must match one of active, inactive

A selection of reference data follows.
Compound: CCC(C)C(=O)OC12C(OC(C)=O)C(C)C3(O)C(C=C(CO)CC4(O)C(=O)C(C)=CC43)C1C2(C)C (centres undefined)
Test system: Es-2
Classification: active

Compound: CC1=CC2/C=C(\C)CCC3OC(C)(C)OC3CCC(=O)C23C(=O)NC(CC(C)C)C3C1C (centres undefined)
Test system: Es-2
Classification: inactive

Compound: O=C(c1ccccn1)N(Cc1cccs1)C1(C(=O)NC2CCCCC2)CCCCC1
Test system: Es-2
Classification: inactive

Compound: CC(=O)[C@H]1CC[C@H]2[C@@H]3CC=C4C[C@@H](OS(=O)(=O)O)CC[C@]4(C)[C@H]3CC[C@]12C
Test system: Es-2
Classification: inactive

Compound: O=C(C(Cc1cccc(C(F)(F)F)c1)NS(=O)(=O)c1cc(F)c2c(c1)CCNC2)N1CCCC1 (centres undefined)
Test system: Es-2
Classification: inactive

# input Record request — test call for C=C[C@@]1(C)CCC2C(=CCC3[C@]2(C)CCC[C@@]3(C)C(=O)O)C1 (some centres undefined)
# output inactive

# input Record request — test call for "O=C(Nc1cccc([N+](=O)[O-])c1)c1cccc(S(=O)(=O)N2CCCCCC2)c1"
# output inactive

# input Record request — test call for "O=C(NCc1ccccc1)c1ccc2c(=O)n(-c3cccc(C(F)(F)F)c3)c(=S)[nH]c2c1"
# output inactive

----------
Experiment: P-glycoprotein substrates identified in KB-8-5-11 adenocarcinoma cell line, qHTS therapeutic library screen (AID 1346987); also: nearly all actives have a fitted effect of over 65% in size
Conditions: KB-8-5-11 (P-gp overexpressing) viability, CellTiter-Glo, 72 h; series mostly up to 44.5 µM
Experimental: The ATP-binding cassette transporters P-glycoprotein (P-gp) is known to limit brain penetration of many chemotherapy drugs. […] All cell lines were plated into 1536-well plates at 500 cells/well in 5 uL media. […] CellTiter-Glo reagent (Promega) was dispensed into the wells, incubated for 5 min and luminescence was read on a ViewLux instrument (Perkin-Elmer). […]
Inconclusive results are not listed. The source made the active and inactive calls. The call rests on the fitted dose curve; in most records, active means well fitted inhibition curve with a large enough effect; inconclusive means small, poorly fitted or top-dose-only effect; inactive means flat fitted curve, though single readings scatter.
Entry note: the call must match one of active, inactive

A selection of reference data follows.
Compound: C[C@@H]1O[C@@H](O[C@H]2[C@@H]3C=CO[C@@H](O[C@@H]4O[C@H](CO)[C@@H](O)[C@H](O)[C@H]4O)[C@@H]3[C@@]3(CO)O[C@@H]23)[C@H](O)[C@H](OC(=O)/C=C/c2ccccc2)[C@H]1O
Classification: inactive
//
Compound: Cc1ccc(N2CCN(CCC3NC(=O)c4ccccc43)CC2)cc1C (stereo unspecified)
Classification: inactive
//
Compound: C=C(C)C1CCC2(C(=O)O)CCC3(C)C(CCC4C5(C)C(C=O)C(O)C(C)(C)C5CCC43C)C12 (stereo unspecified)
Classification: inactive
//
Compound: O=C(NCCO)c1cccc(-c2cc(Nc3ccc(OC(F)(F)F)cc3)ncn2)c1
Classification: inactive
//
Compound: CS/C=C/C(=O)O[C@@H]1CCC2=CC(=O)C(=C(C)C)C[C@]2(C)[C@H]1C
Classification: inactive

# input Record request — test call for Nc1nc2c(ncn2C2OC3COP(=O)(O)OC3C2O)c(=O)[nH]1 (stereo unspecified)
# output inactive

# input Record request — test call for "CCCCCCCCCCCCCCCCCC(=O)[O][Al]"
# output inactive

# input Record request — test call for "Cc1ccc(C)c(NS(=O)(=O)c2cc(C(=O)Nc3ccccc3-c3ccccc3)ccc2C)c1"
# output active

# input Record request — test call for "NCCCC(=O)O"
# output inactive

# input Record request — test call for "CC(C)CCCCC(=O)N[C@@H](CO)C(=O)N[C@@H](CC(C)C)C(=O)[C@@]1(CO)CO1"
# output inactive

# input Record request — test call for CC(=O)O[C@@]12CO[C@@H]1C[C@H](O)[C@@]1(C)C(=O)[C@H](O)C3=C(C)[C@@H](OC(=O)[C@H](O)[C@@H](NC(=O)OC(C)(C)C)c4ccccc4)C[C@@](O)([C@@H](OC(=O)c4ccccc4)C12)C3(C)C (stereo partly specified)
# output active

# input Record request — test call for CCc1cc2c(cc1CC)CC(NCC(O)c1ccc(O)c3[nH]c(=O)ccc13)C2 (stereo unspecified)
# output inactive

# input Record request — test call for "O=S(O)CO"
# output inactive

# input Record request — test call for C/C=C1\NC(=O)[C@H]2CSSCC/C=C/[C@H](CC(=O)N[C@H](C(C)C)C(=O)N2)OC(=O)C(C(C)C)NC1=O (stereo partly specified)
# output active

# input Record request — test call for CC(C)C[C@@H]1NC(=O)[C@@H](Cc2ccccc2)NC(=O)C(CCCCCC(=O)C2CO2)NC(=O)[C@@H]2CCCCN2C1=O (stereo partly specified)
# output active

# input Record request — test call for "CC(=O)[C@H]1CC[C@H]2[C@@H]3CC=C4C[C@@H](OS(=O)(=O)O)CC[C@]4(C)[C@H]3CC[C@]12C"
# output inactive

# input Record request — test call for C[C@@H]1C[C@H]2C3C[C@H](F)C4=CC(=O)C=CC4(C)[C@@]3(F)[C@@H](O)CC2(C)[C@@]1(O)C(=O)COC(=O)C(C)(C)C (stereo partly specified)
# output inactive

# input Record request — test call for "CCCc1cc(C)n(C)c(=O)c1CN(C)C(=O)c1cc(-c2ccc(N3CCN(C(C)C)CC3)nc2)cc2c1cnn2C(C)C"
# output inactive

# input Record request — test call for CC(C)(Cc1ccccc1)NCC(O)c1ccc(O)c(NS(C)(=O)=O)c1 (stereo unspecified)
# output inactive
